Measured on: T1, recombinant human IL-27 (human, UniProt Q14213 21-229; Q8NEV9 29-243)
T1 construct: Bought from R&D Systems (Cat. 2526-IL); also called hIL-27; rhIL-27
T1 sequence 1: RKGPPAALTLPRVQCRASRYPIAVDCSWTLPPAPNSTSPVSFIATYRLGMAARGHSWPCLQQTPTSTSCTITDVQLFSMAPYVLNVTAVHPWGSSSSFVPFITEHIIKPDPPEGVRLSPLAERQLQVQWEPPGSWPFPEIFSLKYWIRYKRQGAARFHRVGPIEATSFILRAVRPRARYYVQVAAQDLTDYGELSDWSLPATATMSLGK
T1 sequence 2: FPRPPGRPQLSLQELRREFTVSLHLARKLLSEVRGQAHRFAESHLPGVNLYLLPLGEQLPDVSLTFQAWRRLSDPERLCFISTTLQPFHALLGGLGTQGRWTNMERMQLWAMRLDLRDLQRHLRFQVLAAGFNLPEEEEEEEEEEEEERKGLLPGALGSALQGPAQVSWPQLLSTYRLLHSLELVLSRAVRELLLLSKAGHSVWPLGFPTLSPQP
Protocol details: SPR (Biacore T200), hIL-27 on CM5 chip, single cycle, 1:1 model
Recorded endpoint: koff (s⁻¹)
Report only the number, with the unit s⁻¹ understood.

Binder | Unit tag | Obs value
Ab7.17 (antibody, human IgG1, kappa, V domains shown, human IgG1/kappa) VH: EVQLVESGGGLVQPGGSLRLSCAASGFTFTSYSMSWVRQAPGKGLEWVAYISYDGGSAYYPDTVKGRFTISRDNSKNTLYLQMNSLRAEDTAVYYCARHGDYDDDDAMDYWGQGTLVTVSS VL: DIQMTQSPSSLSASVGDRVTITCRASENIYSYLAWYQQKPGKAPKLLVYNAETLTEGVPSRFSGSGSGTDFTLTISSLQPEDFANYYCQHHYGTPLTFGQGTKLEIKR | s⁻¹ | 0.0019
Ab7.8 (antibody, human IgG1, kappa, V domains shown, human IgG1/kappa) VH: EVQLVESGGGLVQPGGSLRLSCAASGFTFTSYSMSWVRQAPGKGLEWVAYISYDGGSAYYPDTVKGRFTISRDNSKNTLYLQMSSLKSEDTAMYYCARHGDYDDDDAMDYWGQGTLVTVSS VL: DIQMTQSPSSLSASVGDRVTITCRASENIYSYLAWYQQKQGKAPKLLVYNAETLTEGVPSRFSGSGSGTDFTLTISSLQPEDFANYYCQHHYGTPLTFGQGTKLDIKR | s⁻¹ | 0.0018

Shift focus to the following entry.
koff for Ab7.14 (antibody, human IgG1, kappa, V domains shown, human IgG1/kappa) VH: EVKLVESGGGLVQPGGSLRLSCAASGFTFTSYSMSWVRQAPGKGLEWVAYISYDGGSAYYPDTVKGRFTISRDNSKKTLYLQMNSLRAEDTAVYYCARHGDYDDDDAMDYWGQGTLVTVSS VL: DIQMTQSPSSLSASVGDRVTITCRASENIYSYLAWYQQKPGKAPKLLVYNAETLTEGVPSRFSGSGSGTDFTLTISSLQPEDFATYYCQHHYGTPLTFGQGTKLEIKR ? 0.0018

These measurements were taken from patent US20190382474A1.
